The values you see were collected from paper PMC5880808.

ASSAYED_TARGET: mPiezo1 (Mus musculus, UniProt E2JF22)
Sequence (E2JF22 whole entry): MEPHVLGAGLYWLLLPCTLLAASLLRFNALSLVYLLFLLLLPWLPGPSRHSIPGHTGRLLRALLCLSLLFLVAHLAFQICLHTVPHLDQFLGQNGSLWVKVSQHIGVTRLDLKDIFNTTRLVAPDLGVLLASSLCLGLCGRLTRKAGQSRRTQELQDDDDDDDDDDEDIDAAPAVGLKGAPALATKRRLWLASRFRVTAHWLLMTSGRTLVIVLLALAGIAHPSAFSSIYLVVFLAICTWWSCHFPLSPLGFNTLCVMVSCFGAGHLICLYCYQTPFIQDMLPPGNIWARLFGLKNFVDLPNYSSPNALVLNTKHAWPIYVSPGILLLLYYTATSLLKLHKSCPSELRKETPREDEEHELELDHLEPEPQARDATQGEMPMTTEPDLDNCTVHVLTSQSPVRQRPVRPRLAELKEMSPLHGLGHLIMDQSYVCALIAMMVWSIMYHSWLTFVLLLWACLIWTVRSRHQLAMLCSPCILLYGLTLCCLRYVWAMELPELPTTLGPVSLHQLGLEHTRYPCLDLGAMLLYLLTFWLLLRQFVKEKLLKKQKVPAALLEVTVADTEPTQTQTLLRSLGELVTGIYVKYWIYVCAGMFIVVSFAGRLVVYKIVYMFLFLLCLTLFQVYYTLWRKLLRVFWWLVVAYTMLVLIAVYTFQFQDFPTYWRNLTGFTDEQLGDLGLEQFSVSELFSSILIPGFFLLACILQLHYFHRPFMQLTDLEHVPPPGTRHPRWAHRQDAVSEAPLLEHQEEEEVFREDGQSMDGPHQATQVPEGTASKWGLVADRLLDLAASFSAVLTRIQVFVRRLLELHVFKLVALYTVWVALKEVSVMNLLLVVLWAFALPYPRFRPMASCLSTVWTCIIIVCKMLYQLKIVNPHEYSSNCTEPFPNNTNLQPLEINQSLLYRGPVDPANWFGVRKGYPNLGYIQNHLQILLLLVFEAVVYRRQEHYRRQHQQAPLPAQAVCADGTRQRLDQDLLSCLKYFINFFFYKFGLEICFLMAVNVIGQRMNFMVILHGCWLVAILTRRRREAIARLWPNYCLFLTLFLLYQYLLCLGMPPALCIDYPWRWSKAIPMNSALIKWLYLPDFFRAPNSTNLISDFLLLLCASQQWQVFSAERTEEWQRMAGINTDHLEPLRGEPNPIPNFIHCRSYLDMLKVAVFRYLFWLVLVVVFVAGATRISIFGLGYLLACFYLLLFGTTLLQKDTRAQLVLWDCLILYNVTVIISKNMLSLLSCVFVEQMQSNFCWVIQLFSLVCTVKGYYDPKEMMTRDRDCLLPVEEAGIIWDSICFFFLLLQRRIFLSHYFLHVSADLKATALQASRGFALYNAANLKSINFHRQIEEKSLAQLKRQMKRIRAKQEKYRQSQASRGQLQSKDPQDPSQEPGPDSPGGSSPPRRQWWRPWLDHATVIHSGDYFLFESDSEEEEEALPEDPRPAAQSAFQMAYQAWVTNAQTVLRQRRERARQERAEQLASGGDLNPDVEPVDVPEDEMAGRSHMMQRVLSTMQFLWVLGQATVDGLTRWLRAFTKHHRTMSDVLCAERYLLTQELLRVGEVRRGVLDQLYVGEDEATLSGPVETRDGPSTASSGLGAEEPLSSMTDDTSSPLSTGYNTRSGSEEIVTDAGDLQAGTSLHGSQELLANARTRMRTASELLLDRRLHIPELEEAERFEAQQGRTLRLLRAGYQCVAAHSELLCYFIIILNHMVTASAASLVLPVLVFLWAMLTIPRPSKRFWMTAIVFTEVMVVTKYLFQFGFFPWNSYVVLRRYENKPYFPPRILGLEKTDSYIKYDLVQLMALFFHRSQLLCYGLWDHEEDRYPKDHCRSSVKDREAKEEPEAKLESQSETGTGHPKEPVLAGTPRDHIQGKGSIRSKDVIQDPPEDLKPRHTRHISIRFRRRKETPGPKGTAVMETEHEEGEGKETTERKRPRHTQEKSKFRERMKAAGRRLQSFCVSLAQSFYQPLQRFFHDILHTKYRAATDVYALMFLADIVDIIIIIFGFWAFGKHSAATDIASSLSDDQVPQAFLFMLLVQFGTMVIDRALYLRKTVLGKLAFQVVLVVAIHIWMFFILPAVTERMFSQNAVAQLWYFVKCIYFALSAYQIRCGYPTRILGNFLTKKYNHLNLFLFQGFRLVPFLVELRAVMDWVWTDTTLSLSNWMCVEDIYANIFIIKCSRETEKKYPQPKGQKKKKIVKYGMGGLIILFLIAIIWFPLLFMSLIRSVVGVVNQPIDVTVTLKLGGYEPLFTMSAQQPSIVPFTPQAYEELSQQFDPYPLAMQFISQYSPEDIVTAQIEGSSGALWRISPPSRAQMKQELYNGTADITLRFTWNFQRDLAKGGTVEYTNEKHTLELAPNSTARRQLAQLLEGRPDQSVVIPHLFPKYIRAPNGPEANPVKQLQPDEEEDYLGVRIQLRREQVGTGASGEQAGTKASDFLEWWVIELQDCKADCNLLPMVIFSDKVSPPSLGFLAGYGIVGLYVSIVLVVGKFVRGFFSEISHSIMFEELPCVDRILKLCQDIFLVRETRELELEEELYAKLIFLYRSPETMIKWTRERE
pKd: −log10 of the molar value.
MEASURE_NAME: pKd

- COMPOUND: "Cc1oc(-c2cccs2)cc1C(=O)O"
  EXPERIMENTAL_VALUE: 2.56
- COMPOUND: "Clc1cccc(Cl)c1CSc1nnc(-c2cnccn2)s1 [Yoda1, reference compound]"
  EXPERIMENTAL_VALUE: 4.34
- COMPOUND: "Cc1oc(-c2ccccc2)cc1C(=O)O"
  EXPERIMENTAL_VALUE: 2.56

---

ASSAYED_TARGET: mPiezo1 (Mus musculus)
Construct: The full-length mPiezo1 has 2547 amino acids in each monomer
EXPERIMENT_NOTES: FLIPR GCAMP6s Ca2+ response of transfected HEK293T cells
CONDITIONS_USED: Boltzmann fit, vector signal subtracted

- MOLECULE_SMILES: "Cc1oc(-c2cccs2)cc1C(=O)O"
  ASSAYED_TARGET: "mPiezo1 (Mus musculus)"
  UNIT_SYMBOL: "µM"
  EC50: 158
